- Test system: rodent lifetime carcinogenesis bioassay, tumor incidence TD50
- procedure-details: carcinogenic potency in animals, long-term in vivo studies, CPDB compilation (AID 1745844)
- condition-notes: rat; strain Fischer 344; females; by gavage; site: pituitary gland; lesion: chromophobe adenoma; dosed 106 weeks; study length 108 weeks
outcome-measure: TD50

Cc1ccc(N=C=O)cc1N=C=O
77.3 mg/kg/day

* * *

- System: rodent lifetime carcinogenesis bioassay, tumor incidence TD50
- procedure-details: carcinogenic potency in animals, long-term in vivo studies, CPDB compilation (AID 1745844)
- condition-notes: rat; strain F344/DuCrj; females; in feed; site: uterus; lesion: adenocarcinoma; dosed 104 weeks; study length 113 weeks
outcome-measure: TD50 (mg/kg/day)

S=c1nc[nH]c2nc[nH]c12
34.1
